This collection of values is drawn from patent US20050282743A1.

experimentalSystem: T1, GST-PDZK1 PDZ domain 2 (Homo sapiens (Human)), Q5T2W1
T1 chain: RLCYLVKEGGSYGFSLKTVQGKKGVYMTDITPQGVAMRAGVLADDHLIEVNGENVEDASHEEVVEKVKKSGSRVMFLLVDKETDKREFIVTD
protocolDescription: G assay titration, PDZ 5 ug/ml
measuredProperty: Kd (nM)
Enter your answer as a number in nM; do not include the unit.

[ask] Give the value of Kd reported for the following: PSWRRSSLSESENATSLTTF (modifications not checked) [BLR-1]
[reply] 2000
